Target: Protein-arginine deiminase type-4 (Homo sapiens) (UniProt Q9UM07)
Sequence (Q9UM07 whole entry, looked up): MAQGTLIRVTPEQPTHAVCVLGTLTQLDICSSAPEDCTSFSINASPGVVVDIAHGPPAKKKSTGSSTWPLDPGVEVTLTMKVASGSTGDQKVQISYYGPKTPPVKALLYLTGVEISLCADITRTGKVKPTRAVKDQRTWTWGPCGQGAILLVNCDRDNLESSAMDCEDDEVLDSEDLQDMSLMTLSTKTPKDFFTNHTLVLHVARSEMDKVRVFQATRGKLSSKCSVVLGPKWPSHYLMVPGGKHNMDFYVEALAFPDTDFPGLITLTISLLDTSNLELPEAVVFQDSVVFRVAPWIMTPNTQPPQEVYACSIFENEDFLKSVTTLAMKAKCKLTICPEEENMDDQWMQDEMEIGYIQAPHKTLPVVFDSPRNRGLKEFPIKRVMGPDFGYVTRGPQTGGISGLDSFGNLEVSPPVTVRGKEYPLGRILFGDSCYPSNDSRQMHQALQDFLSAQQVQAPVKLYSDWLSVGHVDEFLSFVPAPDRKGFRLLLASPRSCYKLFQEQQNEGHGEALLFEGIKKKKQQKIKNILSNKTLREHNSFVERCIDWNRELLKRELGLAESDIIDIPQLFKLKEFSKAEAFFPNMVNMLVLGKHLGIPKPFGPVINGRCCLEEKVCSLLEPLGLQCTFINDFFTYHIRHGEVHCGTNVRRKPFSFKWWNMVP
Test: blockers of protein arginine deiminase 4 – biochemical, fluorescence polarization, primary screen (AID 463073);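 further: 0% = PAD4 with DMSO and 100% = wells lacking PAD4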
Conditions: recombinant PAD4, RFA probe fluorescence polarization; at 5 µM
Hit rate of the full screen: of about 2,000 compounds, about 10 (0.5%) were called active.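 How the source made its calls: active means inhibition above 30%; inactive means the rest.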 Shown is part of a subset that was picked to be rich in actives.
I would appreciate it if you answered using one of these outcomes: yes = active, no = inactive

[in] For CCN1C(=O)C(CC(=O)Nc2ccc(OC)cc2)N(CCc2ccc(F)cc2)C1=S (stereo not given) , which call appears in the assay record?
[out] no

[in] Moving on to COc1ccc(C(=O)[C@H]2[C@H]3C(=O)N(c4ccccc4)C(=O)[C@H]3C3C=CC=NN32)cc1 (stereo not given in full)
[out] no

[in] Moving on to COc1cc(C2Nc3ccccc3NC3=C2C(=O)CC(c2ccc(OC)c(OC)c2)C3)ccc1O (stereo not given)
[out] no

###

Target: Protein-arginine deiminase type-4 (Homo sapiens) (UniProt Q9UM07)
Assay: blockers of protein arginine deiminase 4 – biochemical, fluorescence polarization, primary screen (AID 463073);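 further: 0% = PAD4 with DMSO and 100% = wells lacking PAD4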
Conditions: recombinant PAD4, RFA probe fluorescence polarization; at 5 µM
Screen size: about 2,000 compounds; about 10 (0.5%) were called active.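 How the source made its calls: active means inhibition above 30%; inactive means the rest.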 For the sample, actives were picked, then their nearest neighbours and some compounds at random.
I would appreciate it if you answered using one of these outcomes: active, inactive

Example results:
[[record]]
compound = "C/C(=N\\NC(=O)c1ccccc1[N+](=O)[O-])c1ccc(Br)s1"
assigned_label = "inactive"

[[record]]
compound = "COc1ccc(C(=O)NC(=O)NC2(C(Cl)(Cl)Cl)OCCO2)cc1"
assigned_label = "inactive"

[[record]]
compound = "CCOC(=O)C(Cc1cc(C(C)=O)ccc1OC(C)C)C(=O)OCC"
assigned_label = "inactive"

[[record]]
compound = "COc1ccc(-c2[nH]ncc2CN(C)C(C)c2ccon2)c(OC)c1 (stereo not drawn)"
assigned_label = "inactive"

[[record]]
compound = "COCCOC(=O)C1=C(N)OC2=C(C(=O)CCC2)C1c1cccnc1 (stereo not drawn)"
assigned_label = "inactive"


[in] For `Cn1cc(CN2CCC(C(=O)N3CCCCC3)CC2)c(-c2ccccc2F)n1` , which call appears in the assay record?
[out] inactive

[in] Moving on to `O=c1c(-c2ccccc2)c(O)c2cccc3c2n1CCC3`
[out] inactive

[in] Moving on to `C=CCNc1nc2c(c(=O)n(C)c(=O)n2C)n1CC(=C)C`
[out] inactive

[in] Moving on to `COc1ccc(N2CCN(C(=S)NCc3ccccc3)CC2)cc1`
[out] inactive

[in] Moving on to CC1(C)CC(=O)C(C2(O)C(=O)Nc3ccccc32)CO1 (stereo not drawn)
[out] inactive

###

Biological target: Protein-arginine deiminase type-4 (Homo sapiens) (UniProt Q9UM07)
Assay: blockers of protein arginine deiminase 4 – biochemical, fluorescence polarization, primary screen (AID 463073);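 further: 0% = PAD4 with DMSO and 100% = wells lacking PAD4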
Details: recombinant PAD4, RFA probe fluorescence polarization; at 5 µM; stronger effect = higher value
The whole screen tested about 2,000 compounds, of which about 10 (0.5%) were called active. The full list was thinned out, with actives kept by preference.
Each record here notes measured inhibition.
Note: unit % is implicit; provide only the numeric part.

Some compounds with recorded inhibition:
[[record]]
compound = "C#C[C@]1(O)CC[C@H]2[C@@H]3CCC4=C(CCC(=O)C4)[C@H]3CC[C@@]21C"
readout = "inhibition"
experimental_value = 0.19

[[record]]
compound = "COC(=O)C1=NN(C(=O)c2cccc(Br)c2)C(O)(c2ccc(Cl)cc2)C1 (stereo not drawn)"
readout = "inhibition"
experimental_value = -1.03


Now look at this one.
[in] Entry `Cc1ccsc1/C=C/C1=NCCCN1C` : reported inhibition = ?
[out] 1.68

###

Target: Protein-arginine deiminase type-4 (Homo sapiens) (UniProt Q9UM07)
Assay: blockers of protein arginine deiminase 4 – biochemical, fluorescence polarization, primary screen (AID 463073);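 further: 0% = PAD4 with DMSO and 100% = wells lacking PAD4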
Conditions: recombinant PAD4, RFA probe fluorescence polarization; at 5 µM; stronger effect = higher value
About 10 (0.5%) of roughly 2,000 compounds were called active. The list comes from a sample in which actives are over-represented; it also holds close analogues and randomly drawn compounds.
Each record here notes measured inhibition.
Note: unit % is implicit; provide only the numeric part.

Some molecules with recorded inhibition:
[[record]]
molecule = "CC(=O)c1cc2c(cc1NC(=O)c1ccco1)OCCO2"
experimental_value = -1.18

[[record]]
molecule = "CC1(C)C(=O)OC(/C=C\\c2ccccc2)C(C)(C)C1=O (configuration not stated)"
experimental_value = -4.36

[[record]]
molecule = "COc1ccc(-c2csc(-c3cccnc3)n2)cc1C"
experimental_value = -0.79

[[record]]
molecule = "NC(=O)[C@@H]1[C@@H]2C(=O)N(c3ccc(F)cc3)C(=O)[C@@H]2[C@H]2C=Cc3ccccc3N21"
experimental_value = -1.24

[[record]]
molecule = "Cn1c2c(c(=O)[nH]c1=O)C(c1ccc(O)cc1)C1=C(N2)c2ccccc2C1=O (configuration not stated)"
experimental_value = 4.81


[in] Provide value of inhibition for this record tested with Protein-arginine deiminase type-4 (Homo sapiens) (UniProt Q9UM07): `CC(C)C(=O)Nc1c(O)c2ccccc2[nH]c1=O`
[out] -3.74

[in] Moving on to CC(C)OC(=O)C1C2C=CC3(CN(CC4CCCO4)C(=O)C13)O2 (configuration not stated)
[out] 3.74

[in] Moving on to `COc1cccc(OC)c1C(=O)NCCSC1CCCCC1`
[out] -2.94

###

Biological target: Protein-arginine deiminase type-4 (Homo sapiens) (UniProt Q9UM07)
Test: blockers of protein arginine deiminase 4 – biochemical, fluorescence polarization, primary screen (AID 463073);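 further: 0% = PAD4 with DMSO and 100% = wells lacking PAD4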
Conditions: recombinant PAD4, RFA probe fluorescence polarization; at 5 µM
The campaign covered roughly 2,000 compounds. About 10 (0.5%) were called active.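 How the source made its calls: active means inhibition above 30%; inactive means the rest.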 Only a selection was taken, and actives are over-represented in it overall.
I would appreciate it if you answered using one of these outcomes: active, inactive

Example results:
[[record]]
compound = "CCOC(=O)c1cnc2ccccc2c1NCCO"
assigned_label = "inactive"

[[record]]
compound = "C=C(C)Cn1c(NCCOC)nc2c1c(=O)[nH]c(=O)n2C"
assigned_label = "inactive"


[in] For CC(=O)C1=C(O)C(=O)OC1c1ccc(C)cc1 (stereo not drawn) , which call appears in the assay record?
[out] inactive

[in] Moving on to COc1ccc(CN2CCCC(C(=O)c3ccc(Cl)cc3)C2)cc1Cn1cccn1 (stereo not drawn)
[out] inactive

[in] Moving on to COc1ccc(C2NCCC3(O)CCCCC23)c(OC)c1OC (stereo not drawn)
[out] inactive

[in] Moving on to COc1ccc(C(CC(=O)N2CCOCC2)C(C)C)cc1 (stereo not drawn)
[out] inactive

[in] Moving on to `CC(=O)N1CCN(c2ccc(OC[C@H]3CO[C@](Cn4ccnc4)(c4ccc(Cl)cc4Cl)O3)cc2)CC1`
[out] inactive

[in] Moving on to `COc1ccc2oc(=O)c(-c3nc(C)cs3)cc2c1`
[out] inactive

[in] Moving on to `COC1=C(N)C(=O)c2nc(-c3nc(C(=O)O)c(C)c(-c4ccc(OC)c(OC)c4O)c3N)ccc2C1=O`
[out] active

[in] Moving on to `COc1ccc(C(=O)/C=C/c2cc(C(=O)O)cc3c2OCOC3)c(O)c1`
[out] inactive

###

Molecular target: Protein-arginine deiminase type-4 (Homo sapiens)
Test: blockers of protein arginine deiminase 4 – biochemical, fluorescence polarization, primary screen (AID 463073);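 further: 0% = PAD4 with DMSO and 100% = wells lacking PAD4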
Conditions: recombinant PAD4, RFA probe fluorescence polarization; at 5 µM
In all, about 2,000 compounds went through this assay and about 10 (0.5%) were called active.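 The calls were made as follows: active = inhibition above 30%; inactive = the rest.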 The full list was thinned out, with actives kept by preference.
I would appreciate it if you answered using one of these outcomes: active, inactive

[[record]]
molecule = "CC1(C)Cc2ccccc2C(C(Cc2ccccc2)C(N)=O)=N1 (centres undefined)"
assigned_label = "inactive"

[[record]]
molecule = "CC(C)C[C@H](NC(=O)[C@@H]1Cc2ccccc2CN1C(=O)OC(C)(C)C)C(=O)NCC1CCC(C(=O)O)CC1 (some centres undefined)"
assigned_label = "inactive"

[[record]]
molecule = "Cc1ccccc1NC(=O)C1c2ccccc2Oc2ccccc21"
assigned_label = "inactive"

[[record]]
molecule = "COc1ccc(OC(C)C(=O)Nc2ccccc2F)cc1 (centres undefined)"
assigned_label = "inactive"


Below: the item to evaluate.
[in] For CN1C(=O)C(O)(CC(=O)c2ccccc2O)c2cc(Br)ccc21 (centres undefined) , which call appears in the assay record?
[out] inactive

###

Biological target: Protein-arginine deiminase type-4 (Homo sapiens) (UniProt Q9UM07)
Assay: blockers of protein arginine deiminase 4 – biochemical, fluorescence polarization, primary screen (AID 463073);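 further: 0% = PAD4 with DMSO and 100% = wells lacking PAD4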
Settings: recombinant PAD4, RFA probe fluorescence polarization; at 5 µM; stronger effect = higher value
About 10 (0.5%) of roughly 2,000 compounds were called active. Many of the other results were omitted from the sample, so actives are more common in it than they were.
Each record here notes measured inhibition.
Note: unit % is implicit; provide only the numeric part.

Some compounds with recorded inhibition:
[[record]]
compound = "COC(=O)c1[nH]c2ccccc2c1NC(=O)CN1CCN(C/C=C/c2ccccc2)CC1"
readout = "inhibition"
experimental_value = 0.97

[[record]]
compound = "CCCCNC(=O)NS(=O)(=O)c1ccc(C)cc1"
readout = "inhibition"
experimental_value = 5.34


[in] Entry `COc1ccc(OC)c(S(=O)(=O)N2CCCc3ccccc32)c1` : reported inhibition = ?
[out] 1.48

[in] Moving on to `Cc1ncc([N+](=O)[O-])n1CCO`
[out] -2.21

[in] Moving on to `NC[C@H]1O[C@H](O[C@H]2[C@H](O)[C@@H](O[C@H]3O[C@H](CO)[C@@H](O)[C@H](N)[C@H]3O)[C@H](N)C[C@@H]2N)[C@H](N)C[C@@H]1O`
[out] 0.78

[in] Moving on to `CCSC(=O)CCCCCCCCCCCO`
[out] 3.34
